Taken from the supplement of paper PMC6555819.

Test system: RXRa homodimer (NR concentration 180 nM)
PROCEDURE_TEXT: PBM binding z-score (relative to random genomic background probes); higher = stronger binding; sequences stand for … in GC…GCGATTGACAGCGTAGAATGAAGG
ASSAY_READOUT: PBM binding z-score
Keep it simple and answer with nothing but the number.

BIOPOLYMER_SEQUENCE: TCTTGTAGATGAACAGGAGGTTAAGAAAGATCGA
SYSTEM: RXRa homodimer (NR concentration 180 nM)
PBM binding z-score: 0.784

GET /values?readout=PBM binding z-score&item= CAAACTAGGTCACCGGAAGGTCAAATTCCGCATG
6.55

----------
The following sequences are listed with their measured PBM binding z-score values.
Tested on: LXRb homodimer (NR concentration 270 nM)
PROCEDURE_TEXT: PBM binding z-score (relative to random genomic background probes); higher = stronger binding; sequences stand for … in GC…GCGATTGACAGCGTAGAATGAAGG
Please give the numeric answer without any surrounding text.

Worked examples follow.
BIOPOLYMER_SEQUENCE: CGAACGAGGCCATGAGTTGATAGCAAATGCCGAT
PBM binding z-score: -1.01
--
BIOPOLYMER_SEQUENCE: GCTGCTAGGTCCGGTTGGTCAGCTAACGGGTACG
PBM binding z-score: -0.916
--
BIOPOLYMER_SEQUENCE: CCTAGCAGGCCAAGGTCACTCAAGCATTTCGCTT
PBM binding z-score: -0.42
--
BIOPOLYMER_SEQUENCE: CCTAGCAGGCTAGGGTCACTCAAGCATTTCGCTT
PBM binding z-score: -0.881

Endpoint output: PBM binding z-score of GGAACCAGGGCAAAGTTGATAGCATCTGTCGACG . Value?
0.32

Also need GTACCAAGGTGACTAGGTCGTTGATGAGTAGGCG , thanks.
-1.01

And the next one, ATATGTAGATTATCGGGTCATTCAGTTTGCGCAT ?
0.87

Field entry: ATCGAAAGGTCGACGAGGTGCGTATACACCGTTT
0.0651

Moving on to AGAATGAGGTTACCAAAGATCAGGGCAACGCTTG
-0.372

Cool, now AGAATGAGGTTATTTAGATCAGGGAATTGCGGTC
0.456

Ok, now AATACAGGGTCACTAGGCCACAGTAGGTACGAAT
1.04

Thanks! And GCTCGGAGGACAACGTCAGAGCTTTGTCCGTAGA ?
-1.11

Try this sequence next: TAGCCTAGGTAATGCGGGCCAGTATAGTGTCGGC
-1.38

# iterate: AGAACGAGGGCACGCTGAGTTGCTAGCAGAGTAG
-1.02

Another sequence to look at: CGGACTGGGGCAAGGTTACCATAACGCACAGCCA
-0.449

Follow-up item: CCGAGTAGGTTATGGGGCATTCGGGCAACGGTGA
-0.313

And for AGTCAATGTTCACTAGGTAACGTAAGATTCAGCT ?
-0.147

Next entry: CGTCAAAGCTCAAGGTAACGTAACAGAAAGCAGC
-0.863

Quick one: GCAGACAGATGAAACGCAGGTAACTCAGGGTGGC
-1.14

Okay, and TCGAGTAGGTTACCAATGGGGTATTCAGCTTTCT ?
-0.514

Also need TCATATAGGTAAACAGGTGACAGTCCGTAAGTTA , thanks.
-0.213

// query: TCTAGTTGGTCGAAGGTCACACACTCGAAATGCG
0.802

Note, next up: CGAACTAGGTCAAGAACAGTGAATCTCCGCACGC
0.0467

And for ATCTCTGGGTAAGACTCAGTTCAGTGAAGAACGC ?
0.684

----------
Test system: PPARg DBDmut:RXRa IVT, anti-PPARg (DBD mutation: PPARg1 K132A/R137A, NR concentration 270 nM, RXRa partner concentration 90 nM)
PROCEDURE_TEXT: PBM binding z-score (relative to random genomic background probes); higher = stronger binding; sequences stand for … in GC…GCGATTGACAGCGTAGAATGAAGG
We'd kindly ask you to apply these PBM binding z-score classes: 1 = under -0.06, 2 = from -0.06 up to 1, 3 = 1 and over

Solved entries:
BIOPOLYMER_SEQUENCE: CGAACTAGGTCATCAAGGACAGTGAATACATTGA
LABEL_CLASS: 3

BIOPOLYMER_SEQUENCE: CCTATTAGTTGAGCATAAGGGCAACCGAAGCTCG
LABEL_CLASS: 1

BIOPOLYMER_SEQUENCE: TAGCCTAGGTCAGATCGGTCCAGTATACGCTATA
LABEL_CLASS: 1

BIOPOLYMER_SEQUENCE: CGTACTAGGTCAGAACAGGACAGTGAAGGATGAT
LABEL_CLASS: 3

Using the reported PBM binding z-score, which band applies to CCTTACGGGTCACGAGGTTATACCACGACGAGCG ?
3

How about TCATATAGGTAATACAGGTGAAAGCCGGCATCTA ?
3

----------
Test system: PPARg:RXRa 270nM:90nM, anti-RXR (NR concentration 270 nM, RXRa partner concentration 90 nM)
PROCEDURE_TEXT: PBM binding z-score (relative to random genomic background probes); higher = stronger binding; sequences stand for … in GC…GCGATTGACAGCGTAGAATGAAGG
ASSAY_READOUT: PBM binding z-score
Note: the reply should be a number with no unit written.

BIOPOLYMER_SEQUENCE: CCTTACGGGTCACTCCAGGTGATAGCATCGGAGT
DATA_VALUE: 3.66
//
BIOPOLYMER_SEQUENCE: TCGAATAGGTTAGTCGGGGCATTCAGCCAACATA
DATA_VALUE: 1.54
//
BIOPOLYMER_SEQUENCE: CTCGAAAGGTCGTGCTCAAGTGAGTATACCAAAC
DATA_VALUE: 3.77
//
BIOPOLYMER_SEQUENCE: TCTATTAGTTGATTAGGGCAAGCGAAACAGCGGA
DATA_VALUE: 2.03
//
BIOPOLYMER_SEQUENCE: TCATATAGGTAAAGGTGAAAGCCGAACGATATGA
DATA_VALUE: 4.43
//
BIOPOLYMER_SEQUENCE: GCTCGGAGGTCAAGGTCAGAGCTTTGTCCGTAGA
DATA_VALUE: 6.35
//
BIOPOLYMER_SEQUENCE: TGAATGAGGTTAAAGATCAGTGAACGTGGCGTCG
DATA_VALUE: 6.1
//
BIOPOLYMER_SEQUENCE: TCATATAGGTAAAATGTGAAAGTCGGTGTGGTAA
DATA_VALUE: 4.54

I am curious: what PBM binding z-score value has been reported for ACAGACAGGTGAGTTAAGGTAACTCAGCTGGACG ?
0.279

Then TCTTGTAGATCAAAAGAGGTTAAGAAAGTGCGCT ?
1.59

----------
Tested on: RXRa homodimer (NR concentration 180 nM)
PROCEDURE_TEXT: PBM binding z-score (relative to random genomic background probes); higher = stronger binding; sequences stand for … in GC…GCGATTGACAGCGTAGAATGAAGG
Returns one of True or False; True when PBM binding z-score is >= 2.

BIOPOLYMER_SEQUENCE: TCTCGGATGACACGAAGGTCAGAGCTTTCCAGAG
LABEL_CLASS: True

BIOPOLYMER_SEQUENCE: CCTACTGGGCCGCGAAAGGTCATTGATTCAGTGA
LABEL_CLASS: True

BIOPOLYMER_SEQUENCE: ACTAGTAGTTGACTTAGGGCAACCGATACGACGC
LABEL_CLASS: False

BIOPOLYMER_SEQUENCE: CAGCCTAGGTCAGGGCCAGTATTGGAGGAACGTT
LABEL_CLASS: False

BIOPOLYMER_SEQUENCE: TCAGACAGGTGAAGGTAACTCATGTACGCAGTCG
LABEL_CLASS: False

In plain terms: is recorded PBM binding z-score at least 2 for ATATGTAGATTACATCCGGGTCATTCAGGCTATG ?
True

Likewise for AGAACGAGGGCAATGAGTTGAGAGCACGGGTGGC ?
False

Same question, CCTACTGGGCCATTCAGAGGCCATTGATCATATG this time
False

----------
System: PXR:RXRa (NR concentration 270 nM, RXRa partner concentration 90 nM)
PROCEDURE_TEXT: PBM binding z-score (relative to random genomic background probes); higher = stronger binding; sequences stand for … in GC…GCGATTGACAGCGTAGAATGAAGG
Record Condition met whenever PBM binding z-score is at 0.2 or higher; record Condition not met when lower.

Previously resolved entries follow.
BIOPOLYMER_SEQUENCE: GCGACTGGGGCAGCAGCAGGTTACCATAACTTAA
LABEL_CLASS: Condition not met
//
BIOPOLYMER_SEQUENCE: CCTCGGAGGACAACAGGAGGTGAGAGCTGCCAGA
LABEL_CLASS: Condition not met
//
BIOPOLYMER_SEQUENCE: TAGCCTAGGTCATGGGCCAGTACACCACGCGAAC
LABEL_CLASS: Condition met
//
BIOPOLYMER_SEQUENCE: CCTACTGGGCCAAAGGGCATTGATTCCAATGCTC
LABEL_CLASS: Condition met

Please turn your attention to the following entry.
// inclusive: PBM binding z-score at least 0.2? input: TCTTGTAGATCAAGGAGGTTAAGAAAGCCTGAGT
Condition met
